# Procedure Summary: Compound stability in human liver microsomes
# Assay type: in vitro ADME
# Condition Set: human, liver microsomes, pH 7.4, Human liver microsomes; in vivo CLint extrapolated
Measurement Name: log10(CLint scaled at 5 μM) (log10 of the value in mL/min/kg)
Base-10 log of CLint scaled at 5 μM, unit mL/min/kg.

# count of solved cases: 3
                                   molecule  reading
0  Cn1cc(Nc2ncc(Cl)c(NC3CCC4(CC3)CCN(S(C)(=O)=O)CC4)n2)cn1     1.32
1  CN(c1nc(Nc2cnn(C)c2)ncc1Cl)C1CCC2(CC1)CCN(C(=O)CC#N)C2 (single isomer, unassigned)     1.67
2  Cn1cc(Nc2ncc(Cl)c(NC3CCC4(CC3)CCN(c3ccc(C#N)cn3)CC4)n2)cn1     1.90

Given `Cn1cc(Nc2ncc(Cl)c(NC3CCC4(CC3)CCN(C(=O)C(F)(F)F)CC4)n2)cn1` , state its recorded log10(CLint scaled at 5 μM). 1.66

====

Catalogue of compounds with associated pIC50
# Measurement Target: JAK1 (h) (Homo sapiens (Human), UniProt P23458)
# Sequence (P23458 whole entry): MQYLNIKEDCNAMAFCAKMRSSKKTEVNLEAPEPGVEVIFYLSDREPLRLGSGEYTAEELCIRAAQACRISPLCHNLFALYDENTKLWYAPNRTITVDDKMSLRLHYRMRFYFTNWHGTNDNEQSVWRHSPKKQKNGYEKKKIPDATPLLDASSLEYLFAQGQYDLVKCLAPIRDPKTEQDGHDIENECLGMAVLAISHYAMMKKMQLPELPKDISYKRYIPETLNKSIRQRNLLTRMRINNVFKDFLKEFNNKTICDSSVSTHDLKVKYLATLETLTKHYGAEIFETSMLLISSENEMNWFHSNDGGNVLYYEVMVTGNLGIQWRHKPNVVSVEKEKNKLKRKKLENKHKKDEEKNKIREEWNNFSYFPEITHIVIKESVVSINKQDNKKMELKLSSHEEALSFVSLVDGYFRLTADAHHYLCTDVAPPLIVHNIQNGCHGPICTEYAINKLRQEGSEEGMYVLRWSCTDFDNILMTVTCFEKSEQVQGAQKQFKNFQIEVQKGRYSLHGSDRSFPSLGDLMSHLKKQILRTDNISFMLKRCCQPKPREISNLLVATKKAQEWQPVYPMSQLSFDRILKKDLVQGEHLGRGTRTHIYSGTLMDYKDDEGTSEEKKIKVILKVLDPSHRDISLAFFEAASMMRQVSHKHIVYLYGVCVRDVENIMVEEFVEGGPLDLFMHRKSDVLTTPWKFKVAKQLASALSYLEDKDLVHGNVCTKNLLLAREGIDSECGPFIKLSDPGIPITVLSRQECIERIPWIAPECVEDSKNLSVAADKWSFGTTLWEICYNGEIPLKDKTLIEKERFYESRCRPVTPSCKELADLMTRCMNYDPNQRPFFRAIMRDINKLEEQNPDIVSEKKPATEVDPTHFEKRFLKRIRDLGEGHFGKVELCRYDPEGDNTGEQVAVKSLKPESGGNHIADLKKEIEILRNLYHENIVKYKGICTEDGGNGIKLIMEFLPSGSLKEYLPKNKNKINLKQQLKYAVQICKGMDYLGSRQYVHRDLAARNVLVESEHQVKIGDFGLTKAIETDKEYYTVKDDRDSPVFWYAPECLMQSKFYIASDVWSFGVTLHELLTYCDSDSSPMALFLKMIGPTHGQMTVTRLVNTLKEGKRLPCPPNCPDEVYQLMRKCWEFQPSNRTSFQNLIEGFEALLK
Friendly reminder that pIC50 comes from taking -log10 of the concentration in mol/L.

Use the examples below as a reference point.
>>> df
                                   compound  reading
0  Cc1c(Nc2ncc(Cl)c(NC3CC4CN(C(=O)CC#N)CC4C3)n2)cnn1C (stereo not drawn) [Ex. 66]     8.15
1  Cc1cc(Nc2ncc(Cl)c(NC3CC4CN(C(=O)CC#N)CC4C3)n2)nn1C (stereo not drawn) [Ex. 39]     8.30
2  Cn1cc(Nc2nccc(NC3CCC4(CC3)CCN(C(=O)CC#N)C4)n2)cn1 (stereo not drawn) [Ex. 6]     7.26
3  CN(c1nc(Nc2cnn(C)c2)ncc1Cl)C1CCC2(CC1)CCN(C(=O)CC#N)CC2 [Ex. 24]     7.72
4  CC(=O)N1CCC2(CCC(Nc3nc(Nc4cnn(C)c4)ncc3Cl)CC2)CC1 [Ex. 28]     9.05
5  Cn1cc(Nc2ncc(Cl)c(NC3CCC4CN(C(=O)CC#N)CC4C3)n2)cn1 (stereo not drawn) [Ex. 22]     8.70
6  CC(=O)N1CC2CC(Nc3nc(Nc4cnn(C)c4)ncc3C)CC2C1 (stereo not drawn) [Ex. 61]     7.38
7  Cc1cnc(Nc2cnn(C)c2)nc1NC1CCC2(CC1)CCN(C(=O)CC#N)CC2 [Ex. 25]     8.22
8  CN(c1nc(Nc2cnn(C)c2)ncc1Cl)C1CCC2(CC1)CCN(C(=O)CC#N)C2 (single isomer, unassigned) [Ex. 4A]     7.70
9  Cn1cnc(Nc2ncc(Cl)c(NC3CCC4(CC3)CCN(C(=O)CC#N)CC4)n2)c1 [Ex. 42]     8.52

Please look at the following compound next.
What value of pIC50 has been reported for the following compound? N#CCC(=O)N1CCC2(CCC(Nc3nc(Nc4cnn(CC5CC5)c4)ncc3Cl)CC2)CC1 [Ex. 48] 9.40

====

# Procedure Summary: Compound stability in rat liver microsomes
# Type: in vitro ADME
# Condition Set: rat, liver microsomes, pH 7.4, Rat liver microsomes; in vivo CLint extrapolated
Hi! Just check whether CLint scaled at 5 μM is below 50 mL/min/kg. Below gives Criterion met, equal or above gives Criterion not met.

>>> print(df.to_string())
                                   compound  classification
0  Cc1cc(Nc2ncc(Cl)c(NC3CCC4(CC3)CCN(C(=O)CC#N)CC4)n2)nn1C [Ex. 37]   Criterion met

Bench note: check whether N#CCC(=O)N1CCC2(CCC(Nc3nc(Nc4cnn(CCO)c4)ncc3Cl)CC2)CC1 [Ex. 50] shows CLint scaled at 5 μM below 50 mL/min/kg Criterion met

Entry to check: Cc1cnc(Nc2cnn(C)c2)nc1N(C)C1CCC2(CC1)CCN(C(=O)CC#N)CC2 [Ex. 23] Criterion not met

# iterate: Cn1cc(Nc2ncc(Cl)c(NC3CCC4(CC3)CCN(C(=O)C(F)(F)F)CC4)n2)cn1 [Ex. 30] Criterion not met
